# Species on record: Rattus norvegicus
# Protocol Text: Open TG-GATES - Regimen: Single
# Format: toxicity, organism-based, Sprague-Dawley
# Design: regimen Single, gender Male, age 6 weeks
# Setup Conditions: in vivo, po, 300 mg/kg, 24 h, tissue Plasma, route gavage, dose level Middle
Endpoint: PL (mg/dL)
Numbers only, in mg/dL.

Example results:
Reported PL, molecule `CN/C(=N/CCSCc1nc[nH]c1C)NC#N` : ____
159.8

Reported PL, molecule `COC(=O)C1=C(C)NC(C)=C(C(=O)OC)C1c1ccccc1[N+](=O)[O-]` : ____
133.6

Reported PL, molecule `CNC(=C[N+](=O)[O-])NCCSCc1ccc(CN(C)C)o1` : ____
152.8

Would you mind giving PL for every molecule in the list below?
1. O=C(OC[C@H]1O[C@@H](OC(=O)c2cc(O)c(O)c(OC(=O)c3cc(O)c(O)c(O)c3)c2)[C@H](OC(=O)c2cc(O)c(O)c(OC(=O)c3cc(O)c(O)c(O)c3)c2)[C@@H](OC(=O)c2cc(O)c(O)c(OC(=O)c3cc(O)c(O)c(O)c3)c2)[C@@H]1OC(=O)c1cc(O)c(O)c(OC(=O)c2cc(O)c(O)c(O)c2)c1)c1cc(O)c(O)c(OC(=O)c2cc(O)c(O)c(O)c2)c1
2. Cc1nnc2n1-c1ccc(Cl)cc1C(c1ccccc1Cl)=NC2

[139, 155.2]
